Values from patent US5916905A

Biological target: COX-1 (Homo sapiens, UniProt P23219)
Construct: A 2.0 kb fragment containing the coding region; made in house; host or cells: SF9 insect cells (baculovirus, pVL1393)
Sequence (P23219 24-599): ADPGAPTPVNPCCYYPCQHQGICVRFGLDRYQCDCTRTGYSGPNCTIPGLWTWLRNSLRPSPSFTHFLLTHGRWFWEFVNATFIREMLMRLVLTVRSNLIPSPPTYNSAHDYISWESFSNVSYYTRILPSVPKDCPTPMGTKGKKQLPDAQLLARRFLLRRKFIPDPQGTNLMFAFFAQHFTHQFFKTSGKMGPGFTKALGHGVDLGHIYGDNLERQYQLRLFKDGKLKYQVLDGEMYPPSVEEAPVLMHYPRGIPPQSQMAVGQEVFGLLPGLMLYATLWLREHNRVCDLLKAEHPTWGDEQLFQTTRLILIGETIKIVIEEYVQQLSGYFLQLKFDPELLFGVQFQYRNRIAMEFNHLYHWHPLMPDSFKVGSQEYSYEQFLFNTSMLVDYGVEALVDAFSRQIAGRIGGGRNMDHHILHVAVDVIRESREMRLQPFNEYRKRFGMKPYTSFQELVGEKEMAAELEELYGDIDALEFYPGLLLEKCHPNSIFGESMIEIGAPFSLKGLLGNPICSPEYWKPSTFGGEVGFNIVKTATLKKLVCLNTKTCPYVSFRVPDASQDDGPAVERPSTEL
Assay: COX-1 activity in vitro, recombinant human enzyme (PGE2 ELISA)
Type: biochemical
Conditions: human (h); 10 μM arachidonic acid, 10-20 min pre-incubation; read-out: COX-1 ID50

Structure Smiles	Measured Target	IC50
CCCCOc1nc(-c2ccc(F)cc2)c(-c2ccc(S(C)(=O)=O)cc2)cc1COC(=O)CCC	COX-1 (Homo sapiens, UniProt P23219)	> 100 µM
CCCCOc1nc(-c2ccc(F)cc2)c(-c2ccc(S(C)(=O)=O)cc2)cc1COC(C)=O	COX-1 (Homo sapiens, UniProt P23219)	> 100 µM
CC(C)=CCOc1nc(-c2ccc(F)cc2)c(-c2ccc(S(C)(=O)=O)cc2)cc1C#N	COX-1 (Homo sapiens, UniProt P23219)	> 100 µM

---

Target: COX-2 (Homo sapiens, UniProt P35354)
Construct: A 2.0 kb fragment containing the coding region
Sequence (P35354 18-604): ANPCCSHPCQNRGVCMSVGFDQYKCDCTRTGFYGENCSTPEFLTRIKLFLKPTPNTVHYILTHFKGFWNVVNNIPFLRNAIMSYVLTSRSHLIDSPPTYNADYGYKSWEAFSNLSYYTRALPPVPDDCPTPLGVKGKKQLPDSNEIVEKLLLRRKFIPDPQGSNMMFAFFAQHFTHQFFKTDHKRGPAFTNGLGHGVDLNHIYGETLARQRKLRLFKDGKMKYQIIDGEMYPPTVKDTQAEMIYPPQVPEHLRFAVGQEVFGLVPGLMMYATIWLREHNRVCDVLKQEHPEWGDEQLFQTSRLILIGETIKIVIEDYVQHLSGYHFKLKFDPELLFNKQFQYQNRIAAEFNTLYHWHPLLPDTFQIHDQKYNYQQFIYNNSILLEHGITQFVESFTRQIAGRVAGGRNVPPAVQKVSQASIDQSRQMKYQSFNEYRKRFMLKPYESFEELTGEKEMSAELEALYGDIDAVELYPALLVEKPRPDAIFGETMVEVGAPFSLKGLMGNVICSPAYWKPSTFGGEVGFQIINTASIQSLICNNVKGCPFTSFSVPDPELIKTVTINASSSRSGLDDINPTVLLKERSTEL
Assay: COX-2 activity in vitro, recombinant human enzyme (PGE2 ELISA)
Settings: human (h); 10 μM arachidonic acid, 10-20 min pre-incubation; read-out: COX-2 ID50
pIC50: −log10 of the molar value.
Tick MET if pIC50 is 6 or greater. Tick NOT MET if pIC50 is less than 6.

Compound	Group Label
CCCCOc1nc(-c2ccc(F)cc2)c(-c2ccc(S(C)(=O)=O)cc2)cc1C(C)O (racemic)	MET
CSc1nc(-c2ccc(F)cc2)c(-c2ccc(S(C)(=O)=O)cc2)cc1C#N	MET
CCCCOc1nc(-c2ccc(F)cc2)c(-c2ccc(S(N)(=O)=O)cc2)cc1C#N	MET
CCCCOc1nc(-c2ccc(F)cc2)c(-c2ccc(S(C)(=O)=O)cc2)cc1C(F)F	MET
CS(=O)(=O)c1ccc(-c2ccc(N=[N+]=[N-])nc2-c2ccc(F)cc2)cc1	NOT MET
CC(C)=CCOc1nc(-c2ccc(F)cc2)c(-c2ccc(S(C)(=O)=O)cc2)cc1C#N	MET
CCCCOc1nc(-c2ccc(F)cc2)c(-c2ccc(S(C)(=O)=O)cc2)cc1COC(=O)C(C)(C)C	NOT MET
CCCCOc1nc(-c2ccc(F)cc2)c(-c2ccc(S(C)(=O)=O)cc2)cc1C(C)OC(=O)CCC (racemic)	NOT MET
CS(=O)(=O)c1ccc(-c2cc(C#N)c(OCCCC(F)(F)F)nc2-c2ccc(F)cc2)cc1	MET
COc1nc(-c2ccc(F)cc2)c(-c2ccc(S(C)(=O)=O)cc2)cc1C#N	MET
CCCCOc1nc(-c2ccc(F)cc2)c(-c2ccc(S(C)(=O)=O)cc2)cc1COC(=O)CCC	MET
CCCCOc1nc(-c2ccc(F)cc2)c(-c2ccc(S(C)(=O)=O)cc2)cc1COC(C)=O	MET
C=CCOc1nc(-c2ccc(F)cc2)c(-c2ccc(S(C)(=O)=O)cc2)cc1C#N	MET
COc1ccc(-c2nc(OC)c(C#N)cc2-c2ccc(S(C)(=O)=O)cc2)cc1	MET
CCCCOc1nc(-c2ccc(F)cc2)c(-c2ccc(S(C)(=O)=O)cc2)cc1CN	NOT MET
CCCCCCOc1nc(-c2ccc(F)cc2)c(-c2ccc(S(C)(=O)=O)cc2)cc1C#N	MET
CCCOc1nc(-c2ccc(F)cc2)c(-c2ccc(S(C)(=O)=O)cc2)cc1C#N	MET
CS(=O)(=O)c1ccc(-c2ccc(Cl)nc2-c2ccc(F)cc2)cc1	NOT MET
CCCCOc1nc(-c2ccc(F)cc2)c(-c2ccc(S(C)(=O)=O)cc2)cc1CO	MET
CS(=O)(=O)c1ccc(-c2cc(C#N)c(OCc3ccccc3)nc2-c2ccc(F)cc2)cc1	MET
CN(C)c1nc(-c2ccc(F)cc2)c(-c2ccc(S(C)(=O)=O)cc2)cc1C#N	MET
CNc1nc(-c2ccc(F)cc2)c(-c2ccc(S(C)(=O)=O)cc2)cc1C#N	NOT MET
CSc1ccc(-c2nc(SC)ccc2-c2ccc(S(C)(=O)=O)cc2)cc1	MET
CCCCCOc1nc(-c2ccc(F)cc2)c(-c2ccc(S(C)(=O)=O)cc2)cc1C#N	MET
CCCCOc1nc(-c2ccc(F)cc2)c(-c2ccc(S(C)(=O)=O)cc2)cc1CNC	NOT MET
CCCCOc1nc(-c2ccc(F)cc2)c(-c2ccc(S(C)(=O)=O)cc2)cc1C#N	MET
